# assay-system: TEAD1 (Homo sapiens, UniProt P28347)
# Sequence (P28347 whole entry, species assumed): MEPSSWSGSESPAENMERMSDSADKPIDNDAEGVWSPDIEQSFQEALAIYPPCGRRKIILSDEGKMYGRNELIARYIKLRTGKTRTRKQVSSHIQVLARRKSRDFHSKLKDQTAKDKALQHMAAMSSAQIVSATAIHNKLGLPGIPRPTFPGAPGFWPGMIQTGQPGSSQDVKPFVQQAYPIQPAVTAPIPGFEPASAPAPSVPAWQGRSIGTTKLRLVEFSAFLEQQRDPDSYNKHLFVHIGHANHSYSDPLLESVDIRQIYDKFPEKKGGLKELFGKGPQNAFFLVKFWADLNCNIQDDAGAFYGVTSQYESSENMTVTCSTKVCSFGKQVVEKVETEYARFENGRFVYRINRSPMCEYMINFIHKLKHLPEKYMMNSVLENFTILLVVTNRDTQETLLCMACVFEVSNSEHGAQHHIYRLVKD
measurement-name: IC50 (µM)

See these solved cases before continuing.
Query: // query IC50 value for entry C=CC(=O)N(C)Cc1cc(-c2ccc(OC(F)(F)F)cc2)c2nccn2c1
Response: 0.02

Query: If you can, please state the reported IC50 value of O=C(C1=CCC1)N1CC(c2cc(-c3ccc(OC(F)(F)F)cc3)c3nccnc3c2[C@H](O)CO)C1 .
Response: 0.05

Query: Look up IC50 for this compound: C=CC(=O)NCc1cc(-c2ccc(C(F)(F)F)cc2)c2ncoc2c1[C@H](O)CO (single isomer, unassigned)
Response: 0.15

Query: Form field: reported IC50 of O=C(CCl)NCc1cc(-c2ccc(OC(F)(F)F)cc2)c2c(c1CO)CCO2
Response: 0.0044

Query: Which IC50 value is on record for C=CC(=O)NCc1cc(-c2ccc(OC(F)(F)F)cc2)c2ncoc2c1[C@@H](O)CO (single isomer, unassigned) ?
Response: 0.18

Query: Using the record for C=CC(=O)NCc1cc(-c2ccc(OC(F)(F)F)cc2)c2ncsc2c1-c1noc(=O)[nH]1 , report its IC50.
Response: 0.095

Query: What does the data say about its IC50? Entry: C=C(F)C(=O)N1CC(n2cc(-c3ccc(OC(F)(F)F)cc3)c3ncn(C)c3c2=O)C1
Response: 0.018

Query: Which measured IC50 value corresponds to O=C(C1=CCC1)N1CC(c2cc(-c3ccc(OC(F)(F)F)cc3)c3nccnc3c2[C@@H](O)CO)C1 ?
Response: 0.12

A = Cn1cnc2c(-c3ccc(OC(F)(F)F)cc3)nc(C3(C#N)CN(C(=O)/C=C/CO)C3)nc21
B = C=C1CCN(Cc2nc(-c3ccc(OC(F)(F)F)cc3)c3ncn(C)c3n2)C1=O
Query: Between the entries labelled A and B , which has a larger IC50 value on record? Give the label under which the chosen entry appears.
Response: B
(B: 0.6 µM, A: 0.011 µM)
